// reported MC3R selectivity (relative to MC4R) for each item listed
system name: human MC3R (human, UniProt P41968 1-323)
Sequence (P41968 whole entry): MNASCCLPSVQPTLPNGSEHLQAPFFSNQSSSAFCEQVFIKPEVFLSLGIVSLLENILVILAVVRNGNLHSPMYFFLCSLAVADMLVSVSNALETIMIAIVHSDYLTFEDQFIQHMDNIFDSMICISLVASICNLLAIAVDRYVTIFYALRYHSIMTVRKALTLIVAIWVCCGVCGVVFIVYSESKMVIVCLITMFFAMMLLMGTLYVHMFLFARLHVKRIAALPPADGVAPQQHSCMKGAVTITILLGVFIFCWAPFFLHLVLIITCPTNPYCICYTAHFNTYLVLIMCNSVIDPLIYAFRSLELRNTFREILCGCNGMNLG
assay text: cell-based or functional assay
Non-standard residues stand in square brackets, D forms with d. Phe(4-I) = N[C@@H](Cc1ccc(I)cc1)C(=O)O; NMeY = CN[C@@H](Cc1ccc(O)cc1)C(=O)O; Nle = CCCC[C@H](N)C(=O)O
Could you keep your reply to the number by itself?

H-[NMeY]V[Nle][dA]HFR[dW]D-NH2 (SMILES CCCC[C@H](NC(=O)[C@@H](NC(=O)[C@H](Cc1ccc(O)cc1)NC)C(C)C)C(=O)N[C@H](C)C(=O)N[C@@H](Cc1c[nH]cn1)C(=O)N[C@@H](Cc1ccccc1)C(=O)N[C@@H](CCCNC(=N)N)C(=O)N[C@H](Cc1c[nH]c2ccccc12)C(=O)N[C@@H](CC(=O)O)C(N)=O) [CTX-1141]	55
Ac-[Nle][dA]H[Phe(4-I)]R[dW]DRF-NH2 (SMILES CCCC[C@H](NC(C)=O)C(=O)N[C@H](C)C(=O)N[C@@H](Cc1c[nH]cn1)C(=O)N[C@@H](Cc1ccc(I)cc1)C(=O)N[C@@H](CCCNC(=N)N)C(=O)N[C@H](Cc1c[nH]c2ccccc12)C(=O)N[C@@H](CC(=O)O)C(=O)N[C@@H](CCCNC(=N)N)C(=O)N[C@@H](Cc1ccccc1)C(N)=O) [CTX-1169]	200

Item under review: Ac-[Nle][dA]HFR[dW]DRFG-OH (SMILES CCCC[C@H](NC(C)=O)C(=O)N[C@H](C)C(=O)N[C@@H](Cc1c[nH]cn1)C(=O)N[C@@H](Cc1ccccc1)C(=O)N[C@@H](CCCNC(=N)N)C(=O)N[C@H](Cc1c[nH]c2ccccc12)C(=O)N[C@@H](CC(=O)O)C(=O)N[C@@H](CCCNC(=N)N)C(=O)N[C@@H](Cc1ccccc1)C(=O)NCC(=O)O) [CTX-1122] . Reported MC3R selectivity (relative to MC4R)? 7700
